- Tested on: LXRa homodimer (NR concentration 270 nM)
- Assay Comment: PBM binding z-score (relative to random genomic background probes); higher = stronger binding; sequences stand for … in GC…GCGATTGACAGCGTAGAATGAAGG
Decision: PBM binding z-score >= 0.7 yields YES, all other cases yield NO.

PBM binding z-score >= 0.7 for CAAACTAGGTCACAGAGGTCATAGTCCGTGCGTA ? YES

====

- System: PPARa:RXRa (NR concentration 270 nM, RXRa partner concentration 90 nM)
- Assay Comment: PBM binding z-score (relative to random genomic background probes); higher = stronger binding; sequences stand for … in GC…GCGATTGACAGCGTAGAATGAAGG
Measured Parameter: PBM binding z-score
Field format: numeric only.

A selection of reference data follows.
Chain | Target System | PBM binding z-score
CCTAGCTGGTCAGGAGGTCACACACCGGATATGA | PPARa:RXRa (NR concentration 270 nM, RXRa partner concentration 90 nM) | 4.14
TCATATAGGTAATACTGGTGAAAGTCGGCATCTA | PPARa:RXRa (NR concentration 270 nM, RXRa partner concentration 90 nM) | 1.29
CCTTACGGGTCACGAGGTTCTAGCACGACGAGCG | PPARa:RXRa (NR concentration 270 nM, RXRa partner concentration 90 nM) | 5.66
ATACCAAGGAGATCGTGAGGTCGTTGATACTAAC | PPARa:RXRa (NR concentration 270 nM, RXRa partner concentration 90 nM) | 0.547
ACTCGGAGGACAAAGGTTAGAGCTACGCCAGTGA | PPARa:RXRa (NR concentration 270 nM, RXRa partner concentration 90 nM) | 2.93

Output measured PBM binding z-score for this item: CCTCGGAGGACAATAGGAGGTCAGAGCTGCCAGA 1.87

Output measured PBM binding z-score for this item: ATCTGTAGGTAAAGATAGTTCAGTGAATGCAAAT 0.733

Output measured PBM binding z-score for this item: CCTACTGGGCCATTCAGAAGTCATTGATCATATG 0.968

Output measured PBM binding z-score for this item: CTCGAAAGGTCGTGCTCTGGTGAGTATACCAAAC 4.94

Output measured PBM binding z-score for this item: CGTCCAAGGTCAATGCTATGTCAGTGAAAGCATT 4.99

Output measured PBM binding z-score for this item: ACTGTTAGTTGACTTAGGGCAACCGATACGACGC 0.0221

Output measured PBM binding z-score for this item: GCTATTAGTTGAAAGGGCAACCGGATGATTCTCG 2.31

====

- Tested on: VDR:RXRa (NR concentration 270 nM, RXRa partner concentration 90 nM)
- Assay Comment: PBM binding z-score (relative to random genomic background probes); higher = stronger binding; sequences stand for … in GC…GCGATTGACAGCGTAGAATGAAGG
We begin with a simple list: items and their reported PBM binding z-score.
Field format: numeric only.

A selection of reference data follows.
Chain | PBM binding z-score
CGCGAAAGGTCGGTTGAGGTGAGTATACGGATAA | 2.25
GATACAGGCTCAAGGCCAGAGTACGCGTATTGAT | -0.543
CTACCAATGTGAACAAGGTCGTTGATTACTATTC | 3.77

Output measured PBM binding z-score for this item: ACTAGTTGGTCGGCTGAGGTCACACACAATTCGG 3.94

Output measured PBM binding z-score for this item: TCGAGTAGGTAAGGGGCATTCAGAATGGCGTCGA 0.0857

====

- Tested on: PPARg DBDmut IVT, anti-PPARg (DBD mutation: PPARg1 K132A/R137A, NR concentration 270 nM)
- Assay Comment: PBM binding z-score (relative to random genomic background probes); higher = stronger binding; sequences stand for … in GC…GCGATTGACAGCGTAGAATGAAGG
We begin with a simple list: items and their reported PBM binding z-score.

A selection of reference data follows.
Chain | PBM binding z-score
ACTCTGAGGACAAAGGTCAGAGCTACGCCAGTGA | 0.00649
AGACCGAGGGCACGCTGAGTTGATAGCAGAGTAG | -1.3
TGAATGAGGTTAAAGATCAGGGAGCGTGGCGTCG | -0.164
CCTACTGGGGCATAAGGTTACCATAAGCCAGCCC | -0.184
CGTCCAAGGTCATAGGAGGTCAGTGAAGACAGAT | -0.116

Output measured PBM binding z-score for this item: TCTGCTAGGTGAGTTGGTCAGCTAACGAGCTGCC -0.743

Output measured PBM binding z-score for this item: TAGCCTAGGACATTCAGGGGCCAGTATAGAAAGC -1.43

Output measured PBM binding z-score for this item: ATCTCTACGTAAAGTTCAGTGAAAGATCGATAGA 1.55

Output measured PBM binding z-score for this item: ATCTCTAGGTAACAAGTTCAGTGAAAGAGAGGAC 1.64

Output measured PBM binding z-score for this item: GCTTGCAGATCAAGGTTAAGAAAGACTAAGCTAA -0.251

Output measured PBM binding z-score for this item: CCGACTGGGGCATAAGGTTGCCATAAGCCAGCCC -1.53

Output measured PBM binding z-score for this item: ATATGTAGGTTATCGGGTCGTTCAGTTTGCGCAT 1.58

====

- System: LXRb:RXRa (NR concentration 270 nM, RXRa partner concentration 90 nM)
- Assay Comment: PBM binding z-score (relative to random genomic background probes); higher = stronger binding; sequences stand for … in GC…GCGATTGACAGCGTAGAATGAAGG
Measured Parameter: PBM binding z-score
Field format: numeric only.

A selection of reference data follows.
Chain | Val
AGAATAAGGTTATACGTAGATCAGGGAAGAAAGT | 1.56
GCATATAGGTCATACAAGGTGAAAGTCCGATTGT | 4.27

// switching to the query sequence
Give LXRb:RXRa (NR concentration 270 nM, RXRa partner concentration 90 nM) PBM binding z-score for the following sequence: AATACAGGGTCATCGTAGTCCAGAGTACGCACAG 4.83

====

- Tested on: RARb:RXRa (NR concentration 270 nM, RXRa partner concentration 90 nM)
- Assay Comment: PBM binding z-score (relative to random genomic background probes); higher = stronger binding; sequences stand for … in GC…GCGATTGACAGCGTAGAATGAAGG
Decision: PBM binding z-score >= 4 yields yes, all other cases yield no.

Some solved entries appear below for comparison.
Chain | Target System | Class Assignment
AACTCTAGGTAAAGTTCAGTGAAAGATCGATAGA | RARb:RXRa (NR concentration 270 nM, RXRa partner concentration 90 nM) | no
ATTTCTAGGTAAGACTCAGTTCAGTGAAGAACGC | RARb:RXRa (NR concentration 270 nM, RXRa partner concentration 90 nM) | no
GCGACTGGGGCATCAGCAGGTTTCCATAACTTAA | RARb:RXRa (NR concentration 270 nM, RXRa partner concentration 90 nM) | no
CCTACTGGGCCCCGAAAGGTCATTGATTCAGTGA | RARb:RXRa (NR concentration 270 nM, RXRa partner concentration 90 nM) | no
CCTCCAAGGTCAAGGTCAGTGAAAGAGACTCGAA | RARb:RXRa (NR concentration 270 nM, RXRa partner concentration 90 nM) | yes
GCGACTAGGGCATCAGCAGGTTACCATAACTTAA | RARb:RXRa (NR concentration 270 nM, RXRa partner concentration 90 nM) | no
AGAACGAGGGCTCGCTGAGTTGATAGCAGAGTAG | RARb:RXRa (NR concentration 270 nM, RXRa partner concentration 90 nM) | no
TTACCAAGGTGCAAGGTCGTTGATGCACGCCTTG | RARb:RXRa (NR concentration 270 nM, RXRa partner concentration 90 nM) | no
TCTCAAAGTTCAAAGGTAACGTAAGTATCCACAC | RARb:RXRa (NR concentration 270 nM, RXRa partner concentration 90 nM) | yes
ATACCAAGGTGATCGTGAGATCGTTGATACTAAC | RARb:RXRa (NR concentration 270 nM, RXRa partner concentration 90 nM) | no

Consider the record given below.
PBM binding z-score >= 4 for CAAACTAGGTCAACAGGTCAAAGTCCGCTTCCCG ? yes

====

- System: RARb:RXRa (NR concentration 270 nM, RXRa partner concentration 90 nM)
- Assay Comment: PBM binding z-score (relative to random genomic background probes); higher = stronger binding; sequences stand for … in GC…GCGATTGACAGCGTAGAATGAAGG
Measured Parameter: PBM binding z-score
Field format: numeric only.

Output measured PBM binding z-score for this item: CCTAGCAGGCCAGGGTCACTCAGGCATTTCGCTT 2.47

Output measured PBM binding z-score for this item: TCTAGTGGGTCACGGAGGTCACACACGACGGGTA 4.78

Output measured PBM binding z-score for this item: CCCAGTAGGTTATGGGGCATTCAGGCAACGGTGA 0.967

Output measured PBM binding z-score for this item: ATCTCTAGGTAAAGATAGTTCAGTGCATGCAAAT 0.853

Output measured PBM binding z-score for this item: ATCTCTCGGTAAGACTCAGTTCAGTGAAGAACGC 0.565

Output measured PBM binding z-score for this item: CGAACGAGGGAATGAGTTGATAGCAAATGCCGAT -0.567

Output measured PBM binding z-score for this item: ATCTTTAGGTAAAGATAGTTCAGTGAATGCAAAT 0.913

Output measured PBM binding z-score for this item: CCTTACGGGTCACTCGAGGTTATAGCATCGGAGT 3.91

Output measured PBM binding z-score for this item: GCTTACGGGTCAAAGGTTATAGCGTGAATAGAAT 4.33

Output measured PBM binding z-score for this item: ATCTCTAGGTAACCAAGTTGAGTGAATGCCGAAC 0.243

Output measured PBM binding z-score for this item: TCATATAGGTAATACAGGTGGAAGTCGGCATCTA 0.515

Output measured PBM binding z-score for this item: GCATATAGGTAATACAACGTGAAAGTCCGATTGT -0.451
